Values compiled from the supplement of paper PMC12042874.

- assay remarks: amyloid nucleation score (Sup35N fusion, yeast selection) (log enrichment); library NNK1; higher = more nucleation; inactive = no reads after selection;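 also: zero at mode of non-aggregating sequences after 7 days selection at 30°C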
measured attribute: amyloid nucleation score

As a guide, the following entries are already answered.
INSERT INTO measurements (substance, measured_attribute, readout_value) VALUES
  ('MSKINFFVNMAGL', 'amyloid nucleation score', 5.19),
  ('CDGDASAYDTRGTALSA', 'amyloid nucleation score', 'inactive'),
  ('TTALDFRMDAMEVFRRFDEA', 'amyloid nucleation score', 0.14),
  ('ICLLLCLVWDGCIATISNGL', 'amyloid nucleation score', -1.39),
  ('YNGVCSNW', 'amyloid nucleation score', 0.13);

Lab note: measured amyloid nucleation score of YNCFMFAMFARSDSYMGIAS was 0.597

Note to self: amyloid nucleation score recorded for PWYKSLSRPSGGKTVLLRNM was -0.113

----------
- assay remarks: amyloid nucleation score (Sup35N fusion, yeast selection) (log enrichment); library NNK2; higher = more nucleation; inactive = no reads after selection
Just so you know, the groups by amyloid nucleation score go like this: range A: < 0.2; range B: ≥ 0.2 and < 1; range C: ≥ 1

INSERT INTO assay_data (substance, cat) VALUES
  ('YMLMREASGLLRPGAEMWFN', 'range A'),
  ('CFVNGLRNSHLGNLVWVPIG', 'range A'),
  ('SYPYFMLRTTLNTLKTWFWM', 'range A'),
  ('YNLCWCRVIDFCLCWYCILW', 'range C'),
  ('NFSAFGRFNLNLWMNNITRL', 'range C'),
  ('MQWETSGVLCWSKQFGGDWV', 'range B');

Hi, small favor: classify SGTGKVCVVLVHKTSVQRKC by its amyloid nucleation score when you get a moment. range C

# bin label for CARVMLFIMSEMIEFTFYGL range C

Lab note: which band did IYLSLATCSGRRRSYSKPSR land in? range B

# classify by amyloid nucleation score band: YDSWLDTVVFDFFCLCLDKA range A

Each substance maps to one class by amyloid nucleation score. Which class for LCSVWEVFLYFF ? range C

Entry TMMSQVGMDR belongs to which category? range B

----------
- assay remarks: amyloid nucleation score (Sup35N fusion, yeast selection) (log enrichment); library NNK2; higher = more nucleation; inactive = no reads after selection
# cutoff -0.3 applies to amyloid nucleation score; >= gives true, < gives false

Solved cases below.
INSERT INTO measurements (substance, cat) VALUES
  ('LAWLCRWGSVTYYCYSFGQV', 'false'),
  ('GAHFYRTVMNVRSTLSRYIN', 'false'),
  ('MYVMTHNL', 'true'),
  ('LTLHICRAAVYSYGTLS', 'true'),
  ('LFYSTPDRCKRVDVSGISLM', 'false');

Has VLFSHQDEGLWHIHVHF a recorded amyloid nucleation score greater than or equal to -0.3? true

Check this substance for amyloid nucleation score at or above -0.3: SCSYRFSRSDDNCKTRFIAF false

----------
- assay remarks: amyloid nucleation score (Sup35N fusion, yeast selection) (log enrichment); library NNK2; higher = more nucleation; inactive = no reads after selection
Catalogue of amyloid nucleation score values

INSERT INTO results (seq_string, readout_value) VALUES
  ('MSSASQILAHDYQNSYG', -0.383);

Record FCCARILVNVSCVGATCGMC , field amyloid nucleation score: 8.26

amyloid nucleation score reported for this sequence PNPRPVSICNRLYPF : -0.246

// amyloid nucleation score value for LGPGLDLSIINYEWIIF : -0.202

Looking up ALSSNPVLSCKLC , I found its amyloid nucleation score recorded as 6.92

Query SALRSSEEFSAFCVE yields amyloid nucleation score of -0.084

Form: sequence = YRSSHYYQQSIIVFVIMHRC ; amyloid nucleation score = 2.11

Lab book: amyloid nucleation score of RACADGTSEPNAVALCLNAV noted as 0.832

Looking up KRLCYVSYWIYSYSRDGELK , I see its amyloid nucleation score listed as -1.23

----------
- assay remarks: amyloid nucleation score (Sup35N fusion, yeast selection) (log enrichment); library NNK1; higher = more nucleation; inactive = no reads after selection
Measured amyloid nucleation score by item
Returns: the value as a bare number; no unit string appended.

Study these solved cases before continuing.
INSERT INTO assay_data (substance, readout_value) VALUES
  ('NVSSLQDFRVMFWIFECTTR', 0.052),
  ('KYASVGASFVWC', 0.102),
  ('GLRDACFSVLPVYLWVSNGD', 0.281),
  ('YVCGGWCVRVVRQVGYVNL', 0.421),
  ('SESSYGSSSRTTESSVCVSG', -0.008);

amyloid nucleation score for WAMREEVYSNSFSFMFALYW is 0.651

Per the record, HSKRYCGACDLGYLCYRCNI has amyloid nucleation score of -0.333

# substance TVIIWDENIWYFGAYAW ; its amyloid nucleation score = -1.53

Entry LKRDSFWVLIKWTRLDMGVS , amyloid nucleation score reported as 0.056

Kindly note the recorded amyloid nucleation score for SDRKEA , which is -0.444

Looking up LICSSYTNLALILHLWSKRF , I see its amyloid nucleation score listed as 0.209

According to the records, this substance GHGYCLSWFNGNDPRGTTTT displays amyloid nucleation score of 1.1

Summary for this substance, GRPNATIKNLVIFSEMFYSL : amyloid nucleation score is 4.68

----------
- assay remarks: amyloid nucleation score (Sup35N fusion, yeast selection) (log enrichment); library NNK2; higher = more nucleation; inactive = no reads after selection
measured attribute: amyloid nucleation score
Format: numeric value only, no unit, no commentary.

Solved entries:
INSERT INTO assay_data (substance, measured_attribute, readout_value) VALUES
  ('ALLWWRVKLSAHYRYGLNYW', 'amyloid nucleation score', 0.27),
  ('WMRFYSYNGIY', 'amyloid nucleation score', -1.26),
  ('AMAVLALHTVRSQLP', 'amyloid nucleation score', 5.99),
  ('IDNSTMDTCIMNRSQFTIRL', 'amyloid nucleation score', -0.412),
  ('VAKRISHGIQLSLSCKGTRP', 'amyloid nucleation score', 0.138),
  ('GTIYLFRWSFMWRFWMGTGL', 'amyloid nucleation score', -0.644),
  ('FIKMAITDRCGMAYS', 'amyloid nucleation score', -0.752),
  ('MCDIVHY', 'amyloid nucleation score', -0.446),
  ('SRNRFHSYLMSRCNMWQLHY', 'amyloid nucleation score', 0.287),
  ('AQGILVLLSSD', 'amyloid nucleation score', 0.23);

Noted for DAMSMCP : its amyloid nucleation score reads 7.4

Lab note: measured amyloid nucleation score of IRLAYASRNWCSSFGCGRMI was -0.571

Sample LVLAGSYDRCLPSCVVMRKG ; amyloid nucleation score observed: 0.461

amyloid nucleation score reported for this substance TCEYVVN : -0.659

Entry under test: NYCRVDLHSYKCYVVCSMFM . Its amyloid nucleation score was 4.76

Record summary for ILSRTKVFYNSSCETDVMWL : reported amyloid nucleation score = 4.17

----------
- assay remarks: amyloid nucleation score (Sup35N fusion, yeast selection) (log enrichment); library NNK1; higher = more nucleation; inactive = no reads after selection
# cutoff -0.07 applies to amyloid nucleation score; >= gives rule met, < gives rule not met

INSERT INTO results (substance, cat) VALUES
  ('PSMEWWGL', 'rule met'),
  ('ALLHVNLIVGNYTSGG', 'rule met'),
  ('DTGLRLD', 'rule met'),
  ('MFMHELHMVDP', 'rule not met'),
  ('IVDVVLSMGLLYLTSVNY', 'rule not met'),
  ('MTVSRNFDYAKLCEWRRVNR', 'rule not met'),
  ('GFRSGSCGFGIL', 'rule not met'),
  ('NRSRWPIHGFLIANKSPLQF', 'rule met'),
  ('SMDTLLHP', 'rule not met'),
  ('QMDVRDFYSRVSGGGGYQMH', 'rule not met');

Quick check, amyloid nucleation score >= -0.07? TFMAARQWLGPNYDGGQGLK rule not met

----------
- assay remarks: amyloid nucleation score (Sup35N fusion, yeast selection) (log enrichment); library NNK1; higher = more nucleation; inactive = no reads after selection
So basically: amyloid nucleation score at -0.1 or higher? That is true (1). Lower than -0.1? That is false (0).

Answered cases to consult:
INSERT INTO measurements (substance, cat) VALUES
  ('GFIVTGNVGTFNALLERVLT', 'true (1)'),
  ('CGFVEMTSRSKIHSLICWPG', 'true (1)'),
  ('YPVVHDM', 'false (0)');

# input for lookup
Record AQVNLIPNLRETLYDPAISR ; criterion: amyloid nucleation score no lower than -0.1. Met? true (1)

----------
- assay remarks: amyloid nucleation score (Sup35N fusion, yeast selection) (log enrichment); library NNK1; higher = more nucleation; inactive = no reads after selection
Recorded measurements of amyloid nucleation score, one per entry
Answer as a number with no unit attached.

INSERT INTO assay_data (substance, readout_value) VALUES
  ('SSWFFYQNIAVSYSNKAINF', 0.379),
  ('HHIRCRVRIQNNPS', 0.368),
  ('KVCTHYSTHRWLSSQPSKVV', -0.696);

// RMFWANLQVSVNFGDKRVKY : amyloid nucleation score value = 4.13

// VDNFIYLVNYLHTRNFISRH : amyloid nucleation score value = -0.287

Recorded amyloid nucleation score (substance LYFEIYRVIIFKDAFVASMR ): -0.63

Reported amyloid nucleation score ( ENLVFTY ) = 0.01

Per the record, CRSVVGVGSCRTGPEEGVYP has amyloid nucleation score of -0.106

In plain terms, SPTTRTCNLVKIQGTNLSHR has a documented amyloid nucleation score of 1.36

Form: substance = RLFHIGGRGVRYYRLDVAMH ; amyloid nucleation score = -0.264

Noted for TCCVKCGCRVQRMMMCLV : its amyloid nucleation score reads -0.003

// FWCISVRVNYNGYYVYF : amyloid nucleation score value = 1.2
